Molecular target: Histone deacetylase 1 (Homo sapiens, UniProt Q13547)
Sequence (Q13547 whole entry): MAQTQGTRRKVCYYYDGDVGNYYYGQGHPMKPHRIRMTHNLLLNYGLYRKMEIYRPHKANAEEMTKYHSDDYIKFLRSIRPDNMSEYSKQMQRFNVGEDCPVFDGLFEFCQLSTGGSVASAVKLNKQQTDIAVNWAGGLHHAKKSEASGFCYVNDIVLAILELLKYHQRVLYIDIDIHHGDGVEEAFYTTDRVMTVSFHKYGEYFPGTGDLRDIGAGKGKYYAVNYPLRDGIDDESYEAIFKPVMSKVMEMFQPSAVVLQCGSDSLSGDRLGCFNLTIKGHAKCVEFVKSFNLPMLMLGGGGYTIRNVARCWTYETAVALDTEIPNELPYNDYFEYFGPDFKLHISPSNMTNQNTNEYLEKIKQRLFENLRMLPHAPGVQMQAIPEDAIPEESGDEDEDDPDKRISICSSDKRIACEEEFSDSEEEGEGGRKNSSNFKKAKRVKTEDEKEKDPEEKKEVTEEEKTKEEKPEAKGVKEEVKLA
Assay readout: IC50 (nM)

Record smiles: O=C(NO)c1ccc(CNC(=O)c2cc(-c3ccc(F)cc3)cn3ccnc23)cc1
Reading: 3.1

* * *

Assay: Tmax in male Sprague-Dawley rat at 7 mg/kg,po measured upto 8 hrs by UPLC-MS/MS analysis
Assay type: ADME, organism-based
Conditions: in vivo

Record smiles: O=C(NO)c1ccc(CNC(=O)c2cc(-c3ccc(F)cc3)cn3ccnc23)cc1
Tmax: 1 h

* * *

Experiment: Cmax in male Sprague-Dawley rat at 7 mg/kg,iv measured upto 8 hrs by UPLC-MS/MS analysis
Assay type: ADME, organism-based
Conditions: in vivo

Record smiles: O=C(NO)c1ccc(CNC(=O)c2cc(-c3ccc(F)cc3)cn3ccnc23)cc1
Endpoint unit: ng/mL
Cmax: 807
